# Tested on: COLO 205
# Assay method text: NCI tumour cell line growth inhibition, 48 h
The source made the active and inactive calls. No stated cut-off is given here; in the data, active = GI50 up to about 1.1 µM and inactive = higher.
Exercise: for every item that follows, state its recorded GI50.

Consider the worked cases shown below.
- COc1cc(C)c2c(=O)c3ccccc3n(C)c2c1: 26.9 µM (inactive)
- O=C(O)c1nn(-c2ccccc2)nc1-c1nn(-c2ccccc2)nc1C(=O)O: > 100 µM (inactive)
- O=C1NC(=O)C(CCC(=O)c2cccc3ccccc23)C(=O)N1: > 100 µM (inactive)
- COc1ccc(-c2coc3cc(O)cc(O)c3c2=O)cc1: > 10 µM (inactive)
- O=C(Nn1c(-c2ccccc2)nc2ccccc2c1=O)c1ccccc1O: 67.3 µM (inactive)
- NC(=O)CC(/N=C1\C(=O)OC(C(O)CO)\C1=N/C(CC(N)=O)C(=O)O)C(=O)O (stereo not given): > 100 µM (inactive)
- NCCCNC1(c2cc3ccccc3s2)CCCCC1: 1.84 µM (inactive)
- COc1ccc2c(c1)C(=O)C1(C2)[C@H](c2ccccc2)C2C(=O)c3cc(OC)ccc3C2[C@H]1c1ccccc1 (stereo not given in full): > 100 µM (inactive)
- CCCCCC(CN1CCOCC1)C(=O)/C=C/c1ccccc1 (stereo not given): 3.77 µM (inactive)

Proceed to the following item.
Query: Any idea what its GI50 is? The molecule is COC(=O)CNC(=O)C(Cc1ccccc1)NC(=O)c1ccc(-c2ccc(Cl)cc2Cl)o1 (stereo not given)
Reply: 14.6 µM (inactive)

---

# Test system: LXFL 529
# Assay method text: NCI tumour cell line growth inhibition, 48 h
Active and inactive are the calls of the source. Rule as the data show it: active = GI50 up to about 1.1 µM and inactive = higher.
Observable: GI50

• COC(=O)C(Cc1nc2ccccc2nc1C)/C(=N\NC(N)=O)C(=O)Nc1cccc([N+](=O)[O-])c1 (centres undefined) = 37.7 µM (inactive)
• Nc1ccc(C(=O)O)c2[nH]c3ccccc3c(=O)c12 = > 100 µM (inactive)
• COc1ccccc1C1C(C(=O)O)=C(CO)Oc2cc3c(cc21)OCO3 (centres undefined) = > 100 µM (inactive)
• COC1=CC(=O)c2ccccc2C1(CCC=C(C)C)C1=NC(C)(C)CO1 (centres undefined) = 50.7 µM (inactive)
• CCCCC1=CSC(c2ccccc2)=C(c2ccccc2)S1 = 8.28 µM (inactive)
• [O-][n+]1ccccc1S = 0.327 µM (active)

Give GI50 for each of the items listed below.
1. O=C1c2ccccc2N2OC3(N4CCCC4)CCCC3C12c1ccccc1 (centres undefined)
2. N=S(c1ccccc1[N+](=O)[O-])c1ccccc1[N+](=O)[O-]
3. COc1ccc(-c2[nH]c3ccccc3c2CCNS(=O)(=O)c2ccc(C)cc2)cc1
4. CC(C)(C)C1=NO[C@H]2[C@@H](NC(=O)c3ccccc3)CC[C@@H]12
5. Sc1nnc(-c2cccnc2)[nH]1
6. Cc1ccc(C)c(NC(=O)CC/C(=N\NC(=O)C(N)=O)C(C)C(=O)c2ccc(O)cc2)c1 (centres undefined)
7. Cc1ccccc1NC(=O)CC(=O)N1N=C(N2c3ccccc3Sc3ccccc32)CC1c1ccccc1 (centres undefined)

Reply:
["67.8 µM (inactive)", "2.22 µM (inactive)", "> 10 µM (inactive)", "> 100 µM (inactive)", "> 100 µM (inactive)", "> 100 µM (inactive)", "> 100 µM (inactive)"]

Query: For the compound shown here, `CSc1nc(NC(=O)O)c(N(C(C)=O)C(=O)O)c(=O)n1C` , give the reported GI50.
Reply: > 100 µM (inactive)
